Just for reference, PubChem BioAssay AID1159580 is where these values come from.

experiment: chemical genetic growth profiling, strain panel (AID 1159580);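 further: tested at 20 µM; growth read once vehicle control cultures reached saturation at 30 °C; 1 = growth at the plate median or of vehicle wells; lower values mean less growth of the strain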; conditions: S. cerevisiae deletion strains, growth OD, locus YLR370C, strain arc18, active compounds read low
The campaign covered roughly 5,500 compounds. About 2,000 (36%) were called active. Not shown: some 18% with an inconclusive outcome. Some of the results follow.
What normalized growth was measured for each of the following?
Give bare numbers.

[[record]]
compound = "CC(C)(C)NCC(O)c1cc(Cl)c(N)c(Cl)c1 (configuration not stated)"
recorded_number = 1

[[record]]
compound = "CCCCCCC(C)OC(=O)COc1ccc(Cl)cc1Cl (configuration not stated)"
recorded_number = 0.994

[[record]]
compound = "CCCCOc1cc(C(=O)NCCN(CC)CC)c2ccccc2n1"
recorded_number = 0.971

[[record]]
compound = "CCC(=O)c1c(O)cc(O)cc1O"
recorded_number = 0.981

[[record]]
compound = "C=C[C@H]1CN2CC[C@H]1C[C@@H]2[C@@H](OC(=O)OCC)c1ccnc2ccc(OC)cc12"
recorded_number = 0.99


Quick request: normalized growth for each listed item, please.
1. CCOC(=O)c1c(C)cc(OC)cc1O
2. CC(=O)OC(C)C[N+](C)(C)C (configuration not stated)
3. COC(=O)c1c(C)cc(O)cc1O
4. CC(=O)[C@@]1(O)CCC2C3C[C@H](C)C4=CC(=O)C=CC4(C)[C@@]3(F)[C@@H](O)C[C@@]21C (some centres not stated)
5. CCC1OC(=O)[C@H](C)C(=O)[C@H](C)[C@@H](OC2O[C@H](C)C[C@H](N(C)C)[C@H]2O)[C@](C)(OC)C2(CCCn3cnc(-c4cccnc4)c3)C[C@@H](C)C(=O)[C@H](C)[C@H]3N(C2)C(=O)O[C@]13C (some centres not stated)
6. C[C@H]1O[C@H](OC2[C@@H](O)[C@@H](O)C(O)[C@H](O)[C@H]2O)[C@@H](N)C[C@@H]1N=C(N)C(=O)O (some centres not stated)

// result
1. 0.981
2. 1
3. 0.992
4. 0.982
5. 0.985
6. 0.981

// query What value of measured normalized growth is listed for C[N+](C)(C)CC(O)CC(=O)O (configuration not stated) ?
// result 0.973
